- assayed system: T1, E. coli β clamp (β subunit of DNA polymerase III, dnaN gene product) (E. coli, UniProt P0A988 1-366)
- T1 construct: Expressed in BL21 E. coli from pET15b with an N-terminal tag; also called β ring; β protein; not shown: N-terminal tag from plasmid pET15b ('N-tagged protein', purified on Ni-NTA)
- T1 sequence (P0A988 whole entry): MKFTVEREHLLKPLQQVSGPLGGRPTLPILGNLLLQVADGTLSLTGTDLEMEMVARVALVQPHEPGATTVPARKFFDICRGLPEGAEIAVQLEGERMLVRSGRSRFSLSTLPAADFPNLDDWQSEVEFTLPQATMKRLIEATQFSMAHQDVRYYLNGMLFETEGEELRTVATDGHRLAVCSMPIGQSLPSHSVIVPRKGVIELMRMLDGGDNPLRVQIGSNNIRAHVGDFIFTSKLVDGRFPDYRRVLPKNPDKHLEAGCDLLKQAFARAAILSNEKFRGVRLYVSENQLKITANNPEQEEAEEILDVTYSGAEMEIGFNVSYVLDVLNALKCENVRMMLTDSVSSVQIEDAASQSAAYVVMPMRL
- assay remarks: ITC, peptide 400 µM into β ring 30 µM, 25 °C
Square brackets hold non-standard residues; d marks the D form. Cha = N[C@@H](CC1CCCCC1)C(=O)O
measurement kind: pKd
Scale explanation: pKd corresponds to minus log10 of a concentration expressed in moles per litre.

Report measured pKd; entry is Ac-QLDLF-OH (also called Ac-Gln-Leu-Asp-Leu-Phe-OH) [P6 (AcQLDLF)] 6.09

Report measured pKd; entry is Ac-Q[Cha]DLF-OH (SMILES CC(=O)N[C@@H](CCC(N)=O)C(=O)N[C@@H](CC1CCCCC1)C(=O)N[C@@H](CC(=O)O)C(=O)N[C@@H](CC(C)C)C(=O)N[C@@H](Cc1ccccc1)C(=O)O, also called AcQChaDLF; Ac Q Cha D L F) [P7 (Ac-Gln-Cha-Asp-Leu-Phe-OH)] 6.61

Report measured pKd; entry is H-RQLVLGL-OH (Free peptide in ITC; also called H-Arg-Gln-Leu-Val-Leu-Gly-Leu-OH) [P1, natural C-terminal heptapeptide of E. coli DNA polymerase IV (RQLVLGL)] 5.80
